Could you please report measured ICW 1 for the items listed next?
target: EGFR (Homo sapiens, UniProt P00533); construct: host or cells: A431; test: EGFR in-cell Western (ICW) screening protocol (EGFR inhibition assay); type: cell-based; parameters: unit not given here; conditions: ICW assay, run 1
Sequence (P00533 25-1210): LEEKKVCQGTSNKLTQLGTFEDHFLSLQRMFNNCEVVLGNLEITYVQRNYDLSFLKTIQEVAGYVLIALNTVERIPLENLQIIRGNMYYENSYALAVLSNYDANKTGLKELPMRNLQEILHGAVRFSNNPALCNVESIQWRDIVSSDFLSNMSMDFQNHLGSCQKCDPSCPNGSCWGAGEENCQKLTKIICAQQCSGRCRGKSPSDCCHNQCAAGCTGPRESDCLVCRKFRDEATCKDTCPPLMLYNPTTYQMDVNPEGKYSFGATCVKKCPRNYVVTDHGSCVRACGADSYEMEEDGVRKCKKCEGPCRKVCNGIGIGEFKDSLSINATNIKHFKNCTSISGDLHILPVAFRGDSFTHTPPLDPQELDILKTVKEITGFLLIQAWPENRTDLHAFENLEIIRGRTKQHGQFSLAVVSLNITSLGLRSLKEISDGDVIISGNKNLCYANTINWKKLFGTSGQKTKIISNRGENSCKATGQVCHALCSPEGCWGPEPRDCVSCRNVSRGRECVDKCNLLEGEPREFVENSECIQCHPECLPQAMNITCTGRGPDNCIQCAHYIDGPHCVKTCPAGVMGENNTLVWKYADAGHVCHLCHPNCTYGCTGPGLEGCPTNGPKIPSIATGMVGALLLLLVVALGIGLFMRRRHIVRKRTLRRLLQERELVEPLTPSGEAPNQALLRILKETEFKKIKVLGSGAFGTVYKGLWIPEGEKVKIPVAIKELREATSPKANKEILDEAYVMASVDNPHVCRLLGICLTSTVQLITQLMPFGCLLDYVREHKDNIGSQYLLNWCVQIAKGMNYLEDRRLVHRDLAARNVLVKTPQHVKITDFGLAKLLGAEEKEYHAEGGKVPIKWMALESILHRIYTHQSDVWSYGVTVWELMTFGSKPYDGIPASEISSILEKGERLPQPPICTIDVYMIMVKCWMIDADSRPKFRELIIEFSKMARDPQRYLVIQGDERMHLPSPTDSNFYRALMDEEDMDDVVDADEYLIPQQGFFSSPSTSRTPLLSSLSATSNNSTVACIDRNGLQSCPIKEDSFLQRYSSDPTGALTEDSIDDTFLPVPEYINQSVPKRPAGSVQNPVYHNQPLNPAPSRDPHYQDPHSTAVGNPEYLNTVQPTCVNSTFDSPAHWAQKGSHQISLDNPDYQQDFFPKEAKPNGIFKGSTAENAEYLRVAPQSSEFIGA
Structures can show the parent of a compound that is named as a salt.
Reply with just the number.

Determine its reported ICW 1: COc1ccc2nc(Nc3nc(C)c(Cc4cccc(Cl)c4)c(=O)[nH]3)nc(C)c2c1 [11742 + TFA]
33.84

Determine its reported ICW 1: "Cc1ccc2nc(Nc3nc(CSc4nnc(C)s4)cc(=O)[nH]3)nc(C)c2c1"
53.35

Determine its reported ICW 1: Cc1nc(Nc2nc(C)c3cccc(C)c3n2)[nH]c(=O)c1Cc1ccccc1 [12611 + TFA]
52.69

Determine its reported ICW 1: Cc1nc(Nc2ncc3c(n2)CC(c2ccco2)CC3=O)nc2ccccc12 (stereo not shown) [11679 + TFA]
31.02

Each recorded value in this set is attributed to patent US20140179681A1.
